# test_target: Human FXIa (Homo sapiens)
# Construct: purchased HTI, Essex Junction, USA
# Sequence (P03951 388-625): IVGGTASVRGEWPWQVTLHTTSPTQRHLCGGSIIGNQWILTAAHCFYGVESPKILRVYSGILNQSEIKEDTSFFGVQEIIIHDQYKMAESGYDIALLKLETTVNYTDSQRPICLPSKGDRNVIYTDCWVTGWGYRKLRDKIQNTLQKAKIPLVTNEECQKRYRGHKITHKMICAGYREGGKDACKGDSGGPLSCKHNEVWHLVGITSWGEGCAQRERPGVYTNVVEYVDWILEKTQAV
# Sequence (P03951 19-387): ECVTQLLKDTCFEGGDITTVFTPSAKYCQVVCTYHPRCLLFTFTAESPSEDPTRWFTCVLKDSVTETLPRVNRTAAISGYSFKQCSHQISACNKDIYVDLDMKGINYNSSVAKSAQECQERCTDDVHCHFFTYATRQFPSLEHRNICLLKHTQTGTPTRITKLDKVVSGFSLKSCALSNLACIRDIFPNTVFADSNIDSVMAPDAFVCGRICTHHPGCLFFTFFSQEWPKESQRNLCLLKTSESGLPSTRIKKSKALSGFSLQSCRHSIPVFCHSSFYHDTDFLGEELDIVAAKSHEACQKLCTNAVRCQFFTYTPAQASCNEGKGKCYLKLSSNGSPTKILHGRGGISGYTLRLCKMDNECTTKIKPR
# assay_details: FXIa enzymatic chromogenic assay
# Type: biochemical
metric: pKi
Hey, just a heads up that pKi is the negative log base 10 of the concentration in molar.

Completed entries (count: 5):
1) O=C(CC1Cc2cc(Cl)ccc2NC1=O)NC(Cc1ccccc1)C(=O)Nc1ccc(-c2nnn[nH]2)cc1 (centres unmarked): 6.02
2) COC(=O)Nc1ccc(-c2nc(CNC(=O)CCc3cc(Cl)ccc3-n3cnnn3)[nH]c2Cl)cc1 [Compound 11, reference compound]: 7.10
3) Cc1cc(N)nc2ccccc12: 3.92
4) O=C(CCc1cc2cc(Cl)ccc2[nH]c1=O)N[C@@H](Cc1ccccc1)C(=O)Nc1ccc(-c2nnn[nH]2)cc1: 4.47
5) O=C1CC(CNC(=O)[C@H](Cc2ccccc2)NC(=O)c2ccc3[nH]c(=O)cc(O)c3c2)c2cc(Cl)ccc2N1 (some centres unmarked): 8.30

Prompt: Value wanted: pKi (Human FXIa (Homo sapiens)) of entry O=C1CC(CC(=O)NC(Cc2ccccc2)C(=O)Nc2ccc(-c3nnn[nH]3)cc2)c2cc(Cl)ccc2N1 (centres unmarked)
Response: 6.80

Prompt: Value wanted: pKi (Human FXIa (Homo sapiens)) of entry O=C(Cc1cc2cc(Cl)ccc2[nH]c1=O)NC(Cc1ccccc1)C(=O)Nc1ccc(-c2nnn[nH]2)cc1 (centres unmarked)
Response: 5.30

Prompt: Value wanted: pKi (Human FXIa (Homo sapiens)) of entry CCCS(=O)(=O)N[C@@H](C(=O)N[C@@H](CC(C)C)C(=O)NCc1ccc(C(=N)N)cc1)C1CCCCC1 [Compound 2, reference compound]
Response: 7.22

Where these numbers come from: paper PMC4309560
